# Target under test: DNA topoisomerase 1 (Homo sapiens)
# Sequence (P11387 whole entry): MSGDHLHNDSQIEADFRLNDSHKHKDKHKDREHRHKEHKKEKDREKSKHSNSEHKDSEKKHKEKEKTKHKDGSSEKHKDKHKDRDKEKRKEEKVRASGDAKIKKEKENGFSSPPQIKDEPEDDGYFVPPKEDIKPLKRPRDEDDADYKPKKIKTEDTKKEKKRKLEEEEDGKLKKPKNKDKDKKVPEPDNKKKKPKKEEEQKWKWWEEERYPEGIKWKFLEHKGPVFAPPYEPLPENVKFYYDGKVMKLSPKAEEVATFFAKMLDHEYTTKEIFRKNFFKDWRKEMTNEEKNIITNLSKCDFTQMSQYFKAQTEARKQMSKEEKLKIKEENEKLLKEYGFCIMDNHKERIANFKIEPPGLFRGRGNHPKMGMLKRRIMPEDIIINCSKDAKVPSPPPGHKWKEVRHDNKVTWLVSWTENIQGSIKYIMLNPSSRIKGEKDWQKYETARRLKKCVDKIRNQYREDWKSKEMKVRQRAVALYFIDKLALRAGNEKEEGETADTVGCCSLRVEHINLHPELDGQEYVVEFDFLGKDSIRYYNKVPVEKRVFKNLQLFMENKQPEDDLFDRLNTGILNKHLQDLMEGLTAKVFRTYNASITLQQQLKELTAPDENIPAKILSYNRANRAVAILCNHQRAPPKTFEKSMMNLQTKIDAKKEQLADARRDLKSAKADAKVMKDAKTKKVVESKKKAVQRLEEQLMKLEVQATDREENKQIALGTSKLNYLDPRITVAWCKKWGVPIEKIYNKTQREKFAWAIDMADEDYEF
# Experimental protocol: In vitro inhibition of Topoisomerase I-mediated DNA cleavage using supercoiled pBR322 plasmid DNA.
API: label(entry) gives Yes if the entry's EC50 is strictly smaller than 200 nM; on equality or larger values it gives No.

O=C1c2c(c3c4ccc(O)cc4n(C4OC(CO)C(O)C(O)C4O)c3c3[nH]c4ccc(O)cc4c23)C(=O)N1NC(CO)CO (configuration not stated) | Yes
O=C1c2c(c3c4ccc(O)cc4n(C4OC(CO)C(O)C(O)C4O)c3c3[nH]c4ccccc4c23)C(=O)N1NC(CO)CO (configuration not stated) | No

-- ask Quick check: EC50 of O=C1c2c(c3c4cc(O)cc(O)c4n(C4OC(CO)C(O)C(O)C4O)c3c3[nH]c4c(O)cc(O)cc4c23)C(=O)N1NC(CO)CO (configuration not stated) under 200 nM?
-- reply No

-- ask Is EC50 strictly under 200 nM for the entry O=C1c2c(c3c4ccc(O)cc4n(C4OC(CO)C(O)C(O)C4O)c3c3[nH]c4c(O)cccc4c23)C(=O)N1NC(CO)CO (configuration not stated) ?
-- reply Yes

-- ask Given O=C1c2c(c3c4ccccc4n(C4OC(CO)C(O)C(O)C4O)c3c3[nH]c4ccc(O)cc4c23)C(=O)N1NC(CO)CO (configuration not stated) , is recorded EC50 strictly lower than 200 nM?
-- reply No

-- ask I wonder whether O=C1c2c(c3c4cc(O)ccc4n(C4OC(CO)C(O)C(O)C4O)c3c3[nH]c4cc(O)ccc4c23)C(=O)N1NC(CO)CO (configuration not stated) has EC50 below 200 nM. Can you tell?
-- reply Yes

-- ask # TODO verify EC50 < 200 nM strictly for this molecule: O=C1c2c(c3c4ccc(O)cc4n(C4OC(CO)C(O)C(O)C4O)c3c3[nH]c4c(O)cc(O)cc4c23)C(=O)N1NC(CO)CO (configuration not stated)
-- reply Yes

* * *

# Tested on: P388
# Experimental protocol: In vitro cytotoxicity against p388 (murine leukemia) cells.
# Assay type: functional, cell-based
# Measurement conditions: Mus musculus
Measured IC50 values are reported for all entries that follow.
The figure you give is taken to be in nM; do not add the unit.

Solved entries (count: 2):
O=C1c2c(c3c4cccc(O)c4n(C4OC(CO)C(O)C(O)C4O)c3c3[nH]c4ccc(O)cc4c23)C(=O)N1NC(CO)CO (stereo not drawn) | 32
O=C1c2c(c3c4cc(O)ccc4n(C4OC(CO)C(O)C(O)C4O)c3c3[nH]c4cc(O)ccc4c23)C(=O)N1NC(CO)CO (stereo not drawn) | 3.5

Note: attention shifts to another entry.
-- ask Recall and state the measured IC50 for O=C1c2c(c3c4cc(O)ccc4n(C4OC(CO)C(O)C(O)C4O)c3c3[nH]c4ccc(O)cc4c23)C(=O)N1NC(CO)CO (stereo not drawn) .
-- reply 6.8

* * *

# Tested on: Mus musculus
# Experimental protocol: Tested for anticancer effect on MKN-45 human stomach cancer cells implanted subcutaneously into flanks of nude mice.
# Format: functional
Hi, to clarify the labels: y covers LD10 from 400 mg m**-2 upward, n covers anything below 400 mg m**-2.

Sample answers from the record:
O=C1c2c(c3c4cc(O)ccc4n(C4OC(CO)C(O)C(O)C4O)c3c3[nH]c4ccc(O)cc4c23)C(=O)N1NC(CO)CO (stereo unspecified) | n
O=C1c2c(c3c4cc(O)ccc4n(C4OC(CO)C(O)C(O)C4O)c3c3[nH]c4cc(O)ccc4c23)C(=O)N1NC(CO)CO (stereo unspecified) | y
O=C1c2c(c3c4cccc(O)c4n(C4OC(CO)C(O)C(O)C4O)c3c3[nH]c4ccc(O)cc4c23)C(=O)N1NC(CO)CO (stereo unspecified) | y

-- ask Would you say O=C1c2c(c3c4ccc(O)cc4n(C4OC(CO)C(O)C(O)C4O)c3c3[nH]c4ccccc4c23)C(=O)N1NC(CO)CO (stereo unspecified) shows LD10 at minimum 400 mg m**-2?
-- reply y

-- ask I'd appreciate it if you could say whether O=C1c2c(c3c4ccccc4n(C4OC(CO)C(O)C(O)C4O)c3c3[nH]c4cc(O)ccc4c23)C(=O)N1NC(CO)CO (stereo unspecified) has LD10 at least equal to 400 mg m**-2.
-- reply y

-- ask Say whether O=C1c2c(c3c4cccc(O)c4n(C4OC(CO)C(O)C(O)C4O)c3c3[nH]c4cc(O)ccc4c23)C(=O)N1NC(CO)CO (stereo unspecified) shows LD10 of 400 mg m**-2 or more.
-- reply n

-- ask Could you please find out whether O=C1c2c(c3c4cc(O)ccc4n(C4OC(CO)C(O)C(O)C4O)c3c3[nH]c4c(O)cccc4c23)C(=O)N1NC(CO)CO (stereo unspecified) has LD10 that meets 400 mg m**-2 or exceeds it?
-- reply y
